// values below are reported Kd
- measured.on: human GIP receptor (bioGIPR) (Homo sapiens, UniProt P48546)
- Construct: Biotinylate extracellular of the human GIP receptor (bioGIPR, Proteros biostructures GmbH, lot #02/2b); purchased Proteros biostructures GmbH lot #02/2b
- Sequence (P48546 22-138 limits assumed): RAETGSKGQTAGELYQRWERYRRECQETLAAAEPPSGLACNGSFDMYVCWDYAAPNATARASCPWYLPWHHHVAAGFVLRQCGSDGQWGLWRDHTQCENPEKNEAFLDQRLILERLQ
- assay.protocol: Surface plasmon resonance (SPR) based binding assay
- condition.label: SPR, Single Cycle Kinetic mode, 25° C., 1:1 Langmuir binding model; read-out: pKD Category (converted)
*1 amine or outer side, *2 acyl side, *3 side chain or, on linkers, in order; H or OH if unused. Where a SMILES comes first, the peptide text is derived from it. Bridges are numbered along the chain shown (N, C = ends). [ ]: non-standard residue; d: D form. The star is where a group is joined. NH(CH2)5NHDOTA = O=C(O)CN1CCN(CC(=O)O)CCN(CC(=O)NCCCCCN*)CCN(CC(=O)O)CC1; DOTA(In) = O=C1CN2CCN3CCN(CC(=O)*)CCN(CC2)CC(=O)[O][In]([O]1)[O]C(=O)C3; X3 = O=C(O)CN1CCN(CC(=O)O)CCN(CC(=O)NCCCOCCOCCOCCCN*)CCN(CC(=O)O)CC1; Pro(cis-4-NHAc) = CC(=O)N[C@@H]1CN[C@H](C(=O)O)C1; Trp(5-Cl) = N[C@@H](Cc1c[nH]c2ccc(Cl)cc12)C(=O)O; Pyridine(2,6-diCH2) = c1cc(C[*:1])nc(C[*:2])c1; X6 = c1cc(CSCCN[*:2])nc(C[*:1])c1; X7 = c1cc(CSCCN[*:2])cc(C[*:1])c1; Cya = N[C@@H](CS(=O)(=O)O)C(=O)O; Hyp = O=C(O)[C@@H]1C[C@@H](O)CN1; X1 = O=C(CN1CCC(N[*:1])CC1)[*:2]; Suc = O=C(CCC(=O)[*:2])[*:1]; hSer = N[C@@H](CCO)C(=O)O; Api = NC1(C(=O)O)CCNCC1; Thp = NC1(C(=O)O)CCOCC1; Aib = CC(C)(N)C(=O)O

Data request, read-out Kd, for CC[C@H](C)[C@@H]1NC(=O)[C@H](CC(C)C)NC(=O)C2(CCOCC2)NC(=O)[C@@H](NC(=O)[C@@H](CC(C)C)NC(=O)[C@H](CCC(=O)O)NC(=O)[C@@H]2C[C@@H](O)CN2C(=O)[C@H](Cc2c[nH]c3ccc(Cl)cc23)NC(=O)[C@H](Cc2c[nH]c3ccccc23)NC(=O)CCC(=O)O)CSCc2cccc(n2)CSC[C@@H](C(=O)NCCCCCNC(=O)CN2CCN(CC(=O)O)CCN(CC(=O)O)CCN(CC(=O)O)CC2)NC1=O [GIP-117] (Suc-W[Trp(5-Cl)][Hyp]E[dL]C[Thp]LIC-{NH(CH2)5NHDOTA}; linker 6-10 via Pyridine(2,6-diCH2))
< 1 nM

Lookup CC[C@H](C)[C@@H]1NC(=O)[C@H](CC(C)C)NC(=O)C2(CCNCC2)NC(=O)[C@@H](NC(=O)[C@@H](CC(C)C)NC(=O)[C@H](CCC(=O)O)NC(=O)[C@@H]2CCCN2C(=O)[C@H](Cc2c[nH]c3ccc(Cl)cc23)NC(=O)[C@H](Cc2c[nH]c3ccccc23)NC(=O)[C@H](CC(=O)O)NC(=O)CCC(=O)NCCCOCCOCCOCCCNC(=O)CN2CCN(CC(=O)O)CCN(CC(=O)O)CCN(CC(=O)O)CC2)CSCc2cccc(n2)CSCCNC1=O [GIP-119] ({X3-Suc}-DW[Trp(5-Cl)]PE[dL]C[Api]LI; linker 7-C via X6)
< 1 nM

Lookup CC[C@H](C)[C@@H]1NC(=O)[C@H](CC(C)C)NC(=O)C(C)(C)NC(=O)[C@@H](NC(=O)[C@@H](CC(C)C)NC(=O)[C@H](CCC(=O)O)NC(=O)[C@@H]2C[C@@H](O)CN2C(=O)[C@H](Cc2c[nH]c3ccc(Cl)cc23)NC(=O)[C@H](Cc2c[nH]c3ccccc23)NC(=O)[C@H](CS(=O)(=O)O)NC(C)=O)CSCc2cccc(n2)CSCCNC1=O [GIP-179] (Ac-[Cya]W[Trp(5-Cl)][Hyp]E[dL]C[Aib]LI; linker 7-C via X6)
< 1 nM

Lookup `CC[C@H](C)[C@@H]1NC(=O)[C@H](CC(C)C)NC(=O)C2(CCOCC2)NC(=O)[C@@H](NC(=O)[C@@H](CC(C)C)NC(=O)[C@H](CCC(=O)O)NC(=O)[C@@H]2C[C@@H](O)CN2C(=O)[C@H](Cc2c[nH]c3ccc(Cl)cc23)NC(=O)[C@H](Cc2c[nH]c3ccccc23)NC(=O)[C@H](CC(=O)O)NC(=O)CN2CCC(NC(=O)CN3CCN(CC(=O)O)CCN(CC(=O)O)CCN(CC(=O)O)CC3)CC2)CNCc2cccc(n2)CSCCNC1=O`
1 to 7.94 nM

Lookup CC[C@H](C)[C@@H]1NC(=O)[C@H](CC(C)C)NC(=O)C(C)(C)NC(=O)[C@@H](NC(=O)[C@@H](CC(C)C)NC(=O)[C@H](CCC(=O)O)NC(=O)[C@@H]2C[C@H](NC(C)=O)CN2C(=O)[C@H](Cc2c[nH]c3ccc(Cl)cc23)NC(=O)[C@H](Cc2c[nH]c3ccccc23)NC(=O)[C@H](CC(=O)O)NC(=O)CCC(=O)NCCCOCCOCCOCCCNC(=O)CN2CCN(CC(=O)O)CCN(CC(=O)O)CCN(CC(=O)O)CC2)CSCc2cccc(c2)CSCCNC1=O [GIP-111] ({X3-Suc}-DW[Trp(5-Cl)][Pro(cis-4-NHAc)]E[dL]C[Aib]LI; linker 7-C via X7)
1 to 7.94 nM

Lookup CC[C@H](C)[C@@H]1NC(=O)[C@H](CC(C)C)NC(=O)C2(CCOCC2)NC(=O)[C@@H](NC(=O)[C@@H](CC(C)C)NC(=O)[C@H](CCC(=O)O)NC(=O)[C@@H]2C[C@@H](O)CN2C(=O)[C@H](Cc2c[nH]c3ccc(Cl)cc23)NC(=O)[C@H](Cc2c[nH]c3ccccc23)NC(=O)[C@H](CO)NC(C)=O)CSCc2cccc(n2)CSC[C@@H](C(N)=O)NC1=O [GIP-188] (Ac-SW[Trp(5-Cl)][Hyp]E[dL]C[Thp]LIC-NH2; linker 7-11 via Pyridine(2,6-diCH2))
< 1 nM

Lookup CC[C@H](C)[C@@H]1NC(=O)[C@H](CC(C)C)NC(=O)C(C)(C)NC(=O)[C@@H](NC(=O)[C@@H](CC(C)C)NC(=O)[C@H](CCC(=O)O)NC(=O)[C@@H]2CCCN2C(=O)[C@H](Cc2c[nH]c3ccc(Cl)cc23)NC(=O)[C@H](Cc2c[nH]c3ccccc23)NC(=O)[C@H](CC(=O)O)NC(=O)CN2CCC(NC(=O)CN3CCN4CCN5CCN(CC3)CC(=O)[O][In]([O]C(=O)C4)[O]C(=O)C5)CC2)CSCc2cccc(c2)CSCCNC1=O [GIP-153] ({DOTA(In)}-[X1]DW[Trp(5-Cl)]PE[dL]C[Aib]LI; linker 8-C via X7)
< 1 nM

Lookup CC[C@H](C)[C@@H]1NC(=O)[C@H](CC(C)C)NC(=O)C2(CCOCC2)NC(=O)[C@@H](NC(=O)[C@@H](CC(C)C)NC(=O)[C@H](CCO)NC(=O)[C@@H]2C[C@@H](O)CN2C(=O)[C@H](Cc2c[nH]c3ccc(Cl)cc23)NC(=O)[C@H](Cc2c[nH]c3ccccc23)NC(=O)[C@H](CC(=O)O)NC(C)=O)CSCc2cccc(n2)CSC[C@@H](C(N)=O)NC1=O [GIP-194] (Ac-DW[Trp(5-Cl)][Hyp][hSer][dL]C[Thp]LIC-NH2; linker 7-11 via Pyridine(2,6-diCH2))
< 1 nM

All figures here come from patent US20250296971A1.
